Origin of values: the supplement of paper PMC11865577

# key: entry, value: normalised indicator fluorescence
System: hsa-mir-221 loop
Assay Summary: normalised indicator fluorescence (fraction of RNA + indicator signal without compound); higher = less displacement of indicator (weaker competition)
Experimental Conditions: compound concentration: 5 uM; 30 min; indicator: TO-PRO-1 0.1 uM; RNA concentration: 0.1 uM
Counter-ions that a name gives are not always drawn.

- Compound: "O=[N+]([O-])c1ccc(-c2nc(-c3ccc(F)cc3)c(-c3ccncc3)[nH]2)cc1"
  normalised indicator fluorescence: 1.16
- Compound: "C/C1=C/CC[C@H](C)C(=O)C[C@@H](C(C)C)C(=O)C1"
  normalised indicator fluorescence: 1.05
- Compound: "O=C1CCc2ccccc2C1"
  normalised indicator fluorescence: 1.04
- Compound: "C[C@@H]1O[C@@H](O[C@H]2[C@H](Oc3cc(O)c4c(c3)O[C@H](c3ccc(O)cc3)CC4=O)O[C@H](CO)[C@@H](O)[C@@H]2O)[C@H](O)[C@H](O)[C@H]1O"
  normalised indicator fluorescence: 1.06
- Compound: "CCNC(=O)c1[nH]nc(-c2cc(Cl)c(O)cc2O)c1-c1ccc(OC)cc1"
  normalised indicator fluorescence: 1.02
- Compound: "N=C(NCCCCCCNC(=N)NC(=N)Nc1ccc(Cl)cc1)NC(=N)Nc1ccc(Cl)cc1 [Chlorhexidine hydrochloride]"
  normalised indicator fluorescence: 1.01
- Compound: "O=c1ncn2nc(Sc3ccc(F)cc3F)ccc2c1-c1c(Cl)cccc1Cl"
  normalised indicator fluorescence: 1.03
- Compound: "CNC(=O)c1ccc(C)c(-n2c(C)cc(OCc3ccc(F)cc3F)c(Br)c2=O)c1"
  normalised indicator fluorescence: 1.19
- Compound: "CN1CCN(c2nc(C3=C(c4c[nH]c5ccccc45)C(=O)NC3=O)c3ccccc3n2)CC1"
  normalised indicator fluorescence: 1.03
- Compound: "CC(=O)Oc1c(C)c(C)c2c(c1C)CCC(C)(CCC[C@H](C)CCC[C@H](C)CCCC(C)C)O2 (some centres not stated) [Vitamin E Acetate]"
  normalised indicator fluorescence: 1.1
- Compound: "[I-].[K+] [Potassium iodide]"
  normalised indicator fluorescence: 1.08
- Compound: "CCc1oc2ccccc2c1C(=O)c1cc(Br)c(O)c(Br)c1"
  normalised indicator fluorescence: 1
- Compound: "CCCC(C(=O)OCCN(CC)CC)(c1ccccc1)c1ccccc1 [Proadifen hydrochloride]"
  normalised indicator fluorescence: 1.08
- Compound: "Cc1oncc1C(=O)Nc1ccc(C(F)(F)F)cc1 [Leflunomide]"
  normalised indicator fluorescence: 1
- Compound: "O=CN1CC/C(=C/c2ccc3c(c2)OCO3)C1=O"
  normalised indicator fluorescence: 1.03
- Compound: "O=c1cc(-c2ccccc2)oc2cc(O)c(O)c(O)c12"
  normalised indicator fluorescence: 0.767
- Compound: "O=c1cc(-c2ccc(O)cc2)oc2cc(O)cc(O)c12"
  normalised indicator fluorescence: 1.04

---

System: hsa-mir-191 loop
Assay Summary: normalised indicator fluorescence (fraction of RNA + indicator signal without compound); higher = less displacement of indicator (weaker competition)
Experimental Conditions: compound concentration: 5 uM; 30 min; indicator: TO-PRO-1 0.1 uM; RNA concentration: 0.1 uM
Counter-ions that a name gives are not always drawn.
Please enter 1 (yes) where normalised indicator fluorescence is greater than or equal to 1, and 0 (no) where it is lower.

- Molecule: "N#Cc1c(NC(=O)c2cccc3ccccc23)sc2c1CCCC2"
  Category Label: "1 (yes)"
- Molecule: "N#CC(c1ccnc(OCc2ccc(CN3CCOCC3)cc2)n1)c1nc2ccccc2s1 (stereo not drawn)"
  Category Label: "1 (yes)"
- Molecule: "Cc1cc(NC(=O)c2cccc(NC(=O)/C=C/CN(C)C)c2)ccc1Nc1nccc(-c2cccnc2)n1"
  Category Label: "1 (yes)"
- Molecule: "Nc1ncnc2c1ncn2[C@@H]1O[C@H](CO)[C@@H](O)[C@@H]1O"
  Category Label: "1 (yes)"
- Molecule: "COc1ccc(-c2coc3cc(O)ccc3c2=O)cc1O"
  Category Label: "1 (yes)"
- Molecule: "CCNC(=O)c1noc(-c2cc(Cl)c(O)cc2O)c1-c1ccc(OC)cc1"
  Category Label: "1 (yes)"
- Molecule: "Cc1cccc(CC(=O)N2CCc3c2ccc(-c2cn(C)c4ncnc(N)c24)c3F)n1"
  Category Label: "1 (yes)"
- Molecule: "O=C(O)/C=C/c1ccc(Cn2ccnc2)cc1 [Ozagrel hydrochloride]"
  Category Label: "0 (no)"
- Molecule: "CN1CCN(c2ccc(C(=O)Nc3n[nH]c4ccc(Cc5cc(F)cc(F)c5)cc34)c(NC3CCOCC3)c2)CC1"
  Category Label: "1 (yes)"
- Molecule: "O=c1cc(-c2ccc(O)cc2)oc2cc(O)cc(O)c12"
  Category Label: "1 (yes)"
- Molecule: "Nc1c(Br)cc(Br)cc1CN[C@H]1CC[C@H](O)CC1"
  Category Label: "0 (no)"
- Molecule: "CC(C)N(CCCCOCC(=O)NS(C)(=O)=O)c1cnc(-c2ccccc2)c(-c2ccccc2)n1"
  Category Label: "1 (yes)"

---

Test system: hsa-mir-191 loop
Assay Summary: normalised indicator fluorescence (fraction of RNA + indicator signal without compound); higher = less displacement of indicator (weaker competition)
Experimental Conditions: compound concentration: 5 uM; 30 min; indicator: TO-PRO-3 0.5 uM; RNA concentration: 0.5 uM
Measured Parameter: normalised indicator fluorescence

- Chemical String: "O=c1c(O)c(-c2ccccc2)oc2cc(O)cc(O)c12"
  Measured Target: "hsa-mir-191 loop"
  Value Measured: 1.08
- Chemical String: "Cn1cc(-c2ccc3c(c2)CCN3C(=O)Cc2cccc(C(F)(F)F)c2)c2c(N)ncnc21"
  Measured Target: "hsa-mir-191 loop"
  Value Measured: 1.1
- Chemical String: "NC(=O)c1ccc(N(C(N)=O)c2c(F)cccc2F)nc1-c1ccc(F)cc1F"
  Measured Target: "hsa-mir-191 loop"
  Value Measured: 1.01
- Chemical String: "Cc1c(C)c2c(c(C)c1O)CC[C@@](C)(CCC[C@H](C)CCC[C@H](C)CCCC(C)C)O2"
  Measured Target: "hsa-mir-191 loop"
  Value Measured: 1.06
- Chemical String: "COc1c(C)cnc(Cn2cnc3c(Cl)nc(N)nc32)c1C"
  Measured Target: "hsa-mir-191 loop"
  Value Measured: 1.04
- Chemical String: "O=[N+]([O-])c1ccc(-c2nc(-c3ccc(F)cc3)c(-c3ccncc3)[nH]2)cc1"
  Measured Target: "hsa-mir-191 loop"
  Value Measured: 1.03
- Chemical String: "Cc1cccc(CC(=O)N2CCc3c2ccc(-c2cn(C)c4ncnc(N)c24)c3F)n1"
  Measured Target: "hsa-mir-191 loop"
  Value Measured: 1.06

---

Test system: hsa-mir-21 loop
Assay Summary: normalised indicator fluorescence (fraction of RNA + indicator signal without compound); higher = less displacement of indicator (weaker competition)
Experimental Conditions: compound concentration: 5 uM; 30 min; indicator: TO-PRO-1 0.1 uM; RNA concentration: 0.1 uM
Short version: normalised indicator fluorescence at least 1 is true, less is false.

- Compound: "CNC(=O)c1ccc(C)c(-n2c(C)cc(OCc3ccc(F)cc3F)c(Br)c2=O)c1"
  Category Label: "true"
- Compound: "CNc1ccc([N+](=O)[O-])c(Nc2ccc3[nH]ncc3c2)n1"
  Category Label: "false"
- Compound: "Oc1cc(O)c2c(c1)O[C@H](c1ccc(O)c(O)c1)[C@@H](O)C2"
  Category Label: "false"
- Compound: "CC(C)c1cc(C(C)C)c(CC(=O)NS(=O)(=O)Oc2c(C(C)C)cccc2C(C)C)c(C(C)C)c1"
  Category Label: "false"
- Compound: "CCc1cc(C(N)=S)ccn1 [Ethinamide]"
  Category Label: "true"
- Compound: "[I-].[K+] [Potassium iodide]"
  Category Label: "true"
- Compound: "CN(NC(=O)CC(=O)NN(C)C(=S)c1ccccc1)C(=S)c1ccccc1"
  Category Label: "true"

---

# maps each entry to its normalised indicator fluorescence
Test system: hsa-mir-374a loop
Assay Summary: normalised indicator fluorescence (fraction of RNA + indicator signal without compound); higher = less displacement of indicator (weaker competition)
Experimental Conditions: compound concentration: 5 uM; 30 min; indicator: TO-PRO-1 0.1 uM; RNA concentration: 0.1 uM
Structures can show the parent of a compound that is named as a salt.
Measured Parameter: normalised indicator fluorescence

- Compound: "CN1CCN(c2ccc(C(=O)Nc3n[nH]c4ccc(Cc5cc(F)cc(F)c5)cc34)c(NC3CCOCC3)c2)CC1"
  Value Measured: 1.09
- Compound: "Nc1c(Br)cc(Br)cc1CN[C@H]1CC[C@H](O)CC1"
  Value Measured: 1.16
- Compound: "O=C(O)/C=C/c1ccc(Cn2ccnc2)cc1 [Ozagrel]"
  Value Measured: 1.12
- Compound: "COc1ccc(O)cc1"
  Value Measured: 1.19
- Compound: "NC(=O)c1ccccc1Nc1ccnc(Nc2cccc(O)c2)n1"
  Value Measured: 1.12
- Compound: "O=C(COc1ccc(Cl)cc1)NC1CCC(NC(=O)COc2ccc(Cl)cc2)CC1 (centres undefined)"
  Value Measured: 1.07
- Compound: "Cc1c(C)c2c(c(C)c1O)CC[C@@](C)(CCC[C@H](C)CCC[C@H](C)CCCC(C)C)O2"
  Value Measured: 1.05
- Compound: "C1CCN2C[C@@H]3C[C@@H](CN4CCCC[C@@H]34)[C@H]2C1 [(-)-Sparteine sulfate pentahydrate]"
  Value Measured: 1.14
- Compound: "CC1(C)C=Cc2c(ccc3c2OC[C@@H](c2ccc(O)cc2O)C3)O1"
  Value Measured: 1.13
